Target protein (sequence): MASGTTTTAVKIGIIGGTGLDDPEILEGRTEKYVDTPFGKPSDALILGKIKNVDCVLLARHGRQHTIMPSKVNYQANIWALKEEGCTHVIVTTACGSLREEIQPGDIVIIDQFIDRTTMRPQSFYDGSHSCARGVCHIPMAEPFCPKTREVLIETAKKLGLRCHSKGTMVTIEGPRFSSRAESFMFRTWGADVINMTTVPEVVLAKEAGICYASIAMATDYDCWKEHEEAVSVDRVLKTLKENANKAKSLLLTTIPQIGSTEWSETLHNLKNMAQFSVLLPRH
pKd: −log10 of the molar value.
fulfilled means recorded pKd is 7 or above; not fulfilled means it is below 7.

- CSCC(CO)(CO)NCc1c[nH]c2c(N)ncnc12: fulfilled
- CSC[C@@H](O)CNCc1c[nH]c2c(N)ncnc12: fulfilled
- CSC[C@H](O)[C@@H](CO)CNCc1c[nH]c2c(N)ncnc12 (racemic): not fulfilled

* * *

pKd: −log10 of the molar value.
This document collects pKd values reported for E. coli MTAN (Escherichia coli).
endpoint_label: pKd

* CSCC(CO)(CO)NCc1c[nH]c2c(N)ncnc12 [Example 1] | 8.24
* CSC[C@H](O)[C@@H](CO)CNCc1c[nH]c2c(N)ncnc12 (racemic) [Example 9] | 7.60
* CSC[C@H](O)[C@@H](O)CN(C)Cc1c[nH]c2c(N)ncnc12 [Example 11] | 6.69
* CSC[C@@H](CNCc1c[nH]c2c(N)ncnc12)[C@@H](O)CO (racemic) [Example 3] | 8.05
* CSC[C@H](CO)N[C@H](CO)c1c[nH]c2c(N)ncnc12 [Example 12] | 6.81
* CSC[C@@H](O)[C@@H](CO)N(C)Cc1c[nH]c2c(N)ncnc12 [Example 8] | 7.21
* CSC[C@H](O)[C@@H](CO)CN(C)Cc1c[nH]c2c(N)ncnc12 (racemic) [Example 10] | 7.19
* CSC[C@@H](CN(C)Cc1c[nH]c2c(N)ncnc12)[C@@H](O)CO [Example 4] | 5.64
* CSC[C@@H](O)CNCc1c[nH]c2c(N)ncnc12 [Example 2] | 8.40

* * *

Quick record of log10(Kd) values for N. meningitides MTAN (Neisseria meningitidis, UniProt Q9K054).
endpoint_label: log10(Kd) (log10 of the value in nM)

• CSC[C@@H](CNCc1c[nH]c2c(N)ncnc12)[C@@H](O)CO (racemic) = 0.70
• CSCC(CO)(CO)NCc1c[nH]c2c(N)ncnc12 = 0.60
• CSC[C@H](O)[C@@H](CO)CN(C)Cc1c[nH]c2c(N)ncnc12 (racemic) = 2.12
• CSC[C@@H](O)CNCc1c[nH]c2c(N)ncnc12 = 0.56
• CSC[C@H](O)[C@@H](CO)CNCc1c[nH]c2c(N)ncnc12 (racemic) = 1.11
• CSC[C@H](CO)N[C@H](CO)c1c[nH]c2c(N)ncnc12 = 1.67
• CSC[C@@H](O)[C@@H](CO)N(C)Cc1c[nH]c2c(N)ncnc12 = 1.29

* * *

Entries annotated with measured Kd
Target protein (sequence): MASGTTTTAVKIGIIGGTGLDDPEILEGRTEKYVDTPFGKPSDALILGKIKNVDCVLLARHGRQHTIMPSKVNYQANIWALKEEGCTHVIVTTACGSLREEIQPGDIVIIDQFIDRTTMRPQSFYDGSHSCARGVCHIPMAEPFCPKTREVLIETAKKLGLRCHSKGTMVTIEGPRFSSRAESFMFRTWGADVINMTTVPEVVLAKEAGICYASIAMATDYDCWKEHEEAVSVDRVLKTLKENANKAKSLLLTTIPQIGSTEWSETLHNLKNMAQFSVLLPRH
endpoint_label: Kd (nM)

* CSC[C@@H](O)[C@@H](CO)N(C)Cc1c[nH]c2c(N)ncnc12 | 88
* CSC[C@H](CO)N[C@H](CO)c1c[nH]c2c(N)ncnc12 | 130
* CSC[C@H](O)[C@H](CO)NCc1c[nH]c2c(N)ncnc12 | 87
